# Tested on: Mycobacterium tuberculosis
# Protocol text: Antimycobacterial activity against Mycobacterium tuberculosis H37Rv My 331/88 after 21 days by micromethod
# Type: functional
# Condition info: H37Rv My 331/88, 504 h
# maps each entry to its MIC
Number only, in µM; omit the unit.

Example results:
Molecule smiles	MIC / µM
Nc1ccc(C(=O)O)c(O)c1	62.5
O=C(Nc1ccc(C(F)(F)F)cc1)c1cc(Br)ccc1O	1
O=C(Nc1ccc(Cl)c(Cl)c1)c1ccc(Br)cc1O	2
O=C(Nc1cc(C(F)(F)F)cc(C(F)(F)F)c1)c1cc(Br)ccc1O	2

Kindly review the next compound as well.
Task: Quote MIC with test system Mycobacterium tuberculosis for `O=C(Nc1ccc(C(F)(F)F)cc1)c1cc(Br)c(Br)cc1O`
Result: 2

---

# Test system: Mycobacterium kansasii
# Protocol text: Antimycobacterial activity against Mycobacterium kansasii isolate 6509/96 after 7 days by micromethod
# Format: functional
# Condition info: isolate 6509/96, 168 h
Below is a list of entries, each paired with its recorded MIC value.

Compound	MIC
O=C(Nc1cc(C(F)(F)F)cc(C(F)(F)F)c1)c1ccc(Cl)cc1O	8 µM

Task: Report MIC for Nc1ccc(C(=O)O)c(O)c1 [AMINOSALICYLIC ACID]
Result: 32 µM

Task: Fill in reported MIC for this entry: `O=C(Nc1ccc(C(F)(F)F)cc1)c1cc(Br)c(Cl)cc1O`
Result: 4 µM

---

# Tested on: Mycobacterium avium
# Protocol text: Antimycobacterial activity against Mycobacterium avium My 330/80 after 14 days by micromethod
# Type: functional
# Condition info: My 330/80, 336 h
Binarize MIC at 20 µM; below is 1 (yes), at or above is 0 (no).

// known answers, use as guide
Molecule smiles	Class
O=C(Nc1ccc(Br)cc1)c1cc(Br)ccc1O	1 (yes)
O=C(Nc1cc(C(F)(F)F)cc(C(F)(F)F)c1)c1cc(Cl)c(Br)cc1O	0 (no)
O=C(Nc1ccc(Br)cc1)c1ccc(Cl)cc1O	1 (yes)
O=C(Nc1ccc(C(F)(F)F)cc1)c1ccc(Cl)cc1O	1 (yes)
Nc1ccc(C(=O)O)c(O)c1	0 (no)
O=C(Nc1ccc(Br)cc1)c1cc(Cl)ccc1O	1 (yes)

Task: For `O=C(Nc1ccc(C(F)(F)F)cc1)c1cc(Cl)ccc1O` , is the recorded MIC below the cut-off of 20 µM?
Result: 1 (yes)

Task: For `O=C(Nc1ccc(Br)cc1)c1cc(Br)c(Br)cc1O` , is the recorded MIC below the cut-off of 20 µM?
Result: 0 (no)

Task: Given the entry `O=C(Nc1ccc(Br)cc1)c1ccc(Br)cc1O` , would its reported MIC be below 20 µM?
Result: 1 (yes)

Task: Criterion: MIC strictly below 20 µM. Is it met by `O=C(Nc1cc(C(F)(F)F)cc(C(F)(F)F)c1)c1cc(Cl)c(Cl)cc1O` ?
Result: 0 (no)

Task: Field: below-cutoff. Rule: recorded MIC strictly less than 20 µM. Subject: `O=C(Nc1ccc(C(F)(F)F)cc1)c1cc(Br)ccc1O`
Result: 1 (yes)

---

# Protocol text: Selectivity index, ratio of IC50 for human HepG2 cells to MIC for Mycobacterium tuberculosis H37Rv after 21 days
# Type: toxicity, cell-based
# Condition info: HepG2 cells versus Mycobacterium tuberculosis H37Rv, read-out: Selectivity Index
// classify: if (selectivity ratio at 504 h < 2) Fulfilled else Not fulfilled

Task: Lab log: compare recorded selectivity ratio at 504 h with 2; is it strictly lower for `O=C(Nc1ccc(Br)cc1)c1ccc(Br)cc1O` ?
Result: Fulfilled

Task: Take the compound `O=C(Nc1ccc(C(F)(F)F)cc1)c1cc(Br)c(Br)cc1O` and say whether its selectivity ratio at 504 h is less than 2.
Result: Not fulfilled

Task: # TODO verify selectivity ratio at 504 h < 2 strictly for this compound: `O=C(Nc1ccc(Cl)c(Cl)c1)c1ccc(Cl)cc1O`
Result: Fulfilled

Task: Below 2 on selectivity ratio at 504 h? Entry `O=C(Nc1ccc(C(F)(F)F)cc1)c1ccc(Cl)cc1O`
Result: Fulfilled

Task: Is selectivity ratio at 504 h strictly under 2 for the entry `O=C(Nc1cc(C(F)(F)F)cc(C(F)(F)F)c1)c1cc(Br)c(Br)cc1O` ?
Result: Fulfilled

Task: Confirm or reject: selectivity ratio at 504 h of `O=C(Nc1ccc(C(F)(F)F)cc1)c1cc(Br)c(Cl)cc1O` lies strictly below 2
Result: Not fulfilled

Task: Given `O=C(Nc1ccc(Br)cc1)c1cc(Cl)c(Cl)cc1O` , is recorded selectivity ratio at 504 h strictly lower than 2?
Result: Not fulfilled

Task: Does the reported selectivity ratio at 504 h of the following compound sit strictly below 2? `O=C(Nc1cc(C(F)(F)F)cc(C(F)(F)F)c1)c1cc(Br)c(Cl)cc1O`
Result: Fulfilled

---

List of IC50 at 24 h values.
# Protocol text: Cytotoxicity against human HepG2 cells assessed as reduction in cell viability after 24 hrs by MTS assay
# Format: toxicity, cell-based
Write the answer as a number in µM, unit excluded.

Compound	IC50 at 24 h (µM)
O=C(Nc1ccc(Cl)c(Cl)c1)c1ccc(Cl)cc1O	2.23

Task: Please look at this compound and report its IC50 at 24 h: `O=C(Nc1ccc(Br)cc1)c1cc(Br)c(Cl)cc1O`
Result: 10.8

Task: Report IC50 at 24 h, nothing else, for this compound: `O=C(Nc1ccc(C(F)(F)F)cc1)c1cc(Cl)c(Cl)cc1O`
Result: 9.87

Task: Respond only with IC50 at 24 h recorded for `O=C(Nc1cc(C(F)(F)F)cc(C(F)(F)F)c1)c1cc(Br)c(Br)cc1O`
Result: 3

Task: Quick one: give measured IC50 at 24 h for `O=C(Nc1cc(C(F)(F)F)cc(C(F)(F)F)c1)c1cc(Cl)c(Cl)cc1O`
Result: 4.86

Task: Give the reported IC50 at 24 h for this compound. `O=C(Nc1ccc(Cl)c(Cl)c1)c1cc(Br)c(Br)cc1O`
Result: 7.96

Task: // fetch IC50 at 24 h given entry `O=C(Nc1ccc(Cl)c(Cl)c1)c1ccc(Br)cc1O`
Result: 17.7

Task: Name the recorded IC50 at 24 h of the item `O=C(Nc1ccc(C(F)(F)F)cc1)c1cc(Cl)c(Br)cc1O` in your answer.
Result: 6.52

Task: Please give measured IC50 at 24 h of the following entry: `O=C(Nc1ccc(C(F)(F)F)cc1)c1cc(Br)ccc1O`
Result: 1.81

Task: Give the reported value of IC50 at 24 h for this record: `O=C(Nc1ccc(C(F)(F)F)cc1)c1cc(Br)c(Cl)cc1O`
Result: 11

Task: Answer with the recorded IC50 at 24 h for the compound listed here: `O=C(Nc1ccc(Br)cc1)c1cc(Br)c(Br)cc1O`
Result: 17.9

Task: Could you please provide reported IC50 at 24 h for `O=C(Nc1ccc(C(F)(F)F)cc1)c1ccc(Br)cc1O` ? Thanks!
Result: 15

Task: Give me measured IC50 at 24 h, please, for this compound: `O=C(Nc1ccc(Br)cc1)c1ccc(Br)cc1O`
Result: 7.59

Task: Find the measured IC50 at 24 h of `O=C(Nc1ccc(Cl)c(Cl)c1)c1cc(Br)c(Cl)cc1O` and report it.
Result: 7.65

Task: Note IC50 at 24 h for the compound shown: `O=C(Nc1cc(C(F)(F)F)cc(C(F)(F)F)c1)c1ccc(Br)cc1O`
Result: 8.08

Task: Identify measured IC50 at 24 h associated with O=C(Nc1ccc(Br)cc1)c1cc(Br)ccc1O [DIBROMSALAN]
Result: 23.6

---

# Tested on: Mycobacterium tuberculosis
# Protocol text: Antimycobacterial activity against Mycobacterium tuberculosis H37Rv My 331/88 after 14 days by micromethod
# Format: functional
# Condition info: H37Rv My 331/88, 336 h
Measured endpoint: MIC (µM)
Write the answer as a number in µM, unit excluded.

Before answering, review these 5 worked examples.
Molecule smiles	Target or test system	MIC, µM
O=C(Nc1ccc(Cl)c(Cl)c1)c1ccc(Br)cc1O	Mycobacterium tuberculosis	1
O=C(Nc1cc(C(F)(F)F)cc(C(F)(F)F)c1)c1cc(Cl)c(Br)cc1O	Mycobacterium tuberculosis	2
O=C(Nc1ccc(C(F)(F)F)cc1)c1cc(Br)c(Cl)cc1O	Mycobacterium tuberculosis	1
O=C(Nc1ccc(C(F)(F)F)cc1)c1cc(Cl)c(Br)cc1O	Mycobacterium tuberculosis	1
O=C(Nc1ccc(C(F)(F)F)cc1)c1cc(Br)c(Br)cc1O	Mycobacterium tuberculosis	2

Read the next record carefully.
Task: Return the recorded MIC value; entry: `O=C(Nc1cc(C(F)(F)F)cc(C(F)(F)F)c1)c1cc(Br)ccc1O`
Result: 2

---

Each entry below carries its recorded MIC.
# Tested on: Mycobacterium avium
# Protocol text: Antimycobacterial activity against Mycobacterium avium My 330/80 after 21 days by micromethod
# Format: functional
# Condition info: My 330/80, 504 h
Quick reminder: number only, in µM, skip the unit.

Field: example entries. Status: answers known.
Molecule smiles	Target or test system	Measured endpoint	Measured result
O=C(Nc1cc(C(F)(F)F)cc(C(F)(F)F)c1)c1ccc(Cl)cc1O	Mycobacterium avium	MIC	16
O=C(Nc1cc(C(F)(F)F)cc(C(F)(F)F)c1)c1cc(Cl)ccc1O	Mycobacterium avium	MIC	32
O=C(Nc1ccc(Cl)c(Cl)c1)c1cc(Br)c(Br)cc1O	Mycobacterium avium	MIC	62.5
Nc1ccc(C(=O)O)c(O)c1	Mycobacterium avium	MIC	125
O=C(Nc1ccc(Br)cc1)c1cc(Cl)c(Br)cc1O	Mycobacterium avium	MIC	32

Task: Look up and state reported MIC for `O=C(Nc1ccc(Br)cc1)c1cc(Cl)c(Cl)cc1O`
Result: 32

Task: Return value of MIC for input `O=C(Nc1ccc(Br)cc1)c1ccc(Br)cc1O` , no commentary.
Result: 16

Task: Output measured MIC for this item: `O=C(Nc1ccc(C(F)(F)F)cc1)c1cc(Br)c(Cl)cc1O`
Result: 62.5

Task: Return MIC (reported value) for this molecule: `O=C(Nc1ccc(C(F)(F)F)cc1)c1cc(Br)ccc1O`
Result: 1
